- Test system: Rattus norvegicus
- Experiment Description: Stimulation of growth hormone release in rat at 0.17 umol/kg, iv relative to control
- Type: functional
Parameter Measured: Activity (%)
Enter your answer as a number in %; do not include the unit.

Query: Record lookup: for Rattus norvegicus, what Activity belongs to `CC(C)(N)C(=O)N[C@H](COCc1ccccc1)c1nnnn1CCOC(=O)NCCCCO` ?
Reply: 264

Query: Queued: `CC(C)(N)C(=O)N[C@H](COCc1ccccc1)c1nnnn1CCCC(=O)NCCCCCCO`
Reply: 522

Query: Next record, please: `CC(C)(N)C(=O)N[C@H](COCc1ccccc1)c1nnnn1CCCC(=O)NCCS(=O)(=O)CCO`
Reply: 1290

Query: Can you handle `CC(C)(N)C(=O)N[C@H](COCc1ccccc1)c1nnnn1CCNC(=O)CCCCO` next?
Reply: 722

Query: Here is the next compound: `CC(C)(N)C(=O)N[C@H](COCc1ccccc1)c1nnnn1CCCC(=O)NCCS(N)(=O)=O`
Reply: 408

Query: Likewise for `CC(C)(N)C(=O)N[C@H](COCc1ccccc1)c1nnnn1CCCC(=O)NCCc1cccc(O)c1` ?
Reply: 606
